Target: UniProt P52564
Sequence (P52564 whole entry): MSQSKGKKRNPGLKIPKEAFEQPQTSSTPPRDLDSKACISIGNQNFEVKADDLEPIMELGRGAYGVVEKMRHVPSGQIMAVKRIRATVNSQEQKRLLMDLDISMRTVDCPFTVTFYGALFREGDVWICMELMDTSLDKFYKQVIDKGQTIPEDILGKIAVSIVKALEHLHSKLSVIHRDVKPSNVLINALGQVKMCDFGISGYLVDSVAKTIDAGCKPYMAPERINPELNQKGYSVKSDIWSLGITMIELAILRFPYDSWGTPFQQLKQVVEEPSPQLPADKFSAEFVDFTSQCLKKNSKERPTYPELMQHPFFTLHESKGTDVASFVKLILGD
Assay: pIC50, kinobeads binding competition
Conditions: cell material: Lysate mix
Below, each entry is listed alongside its reported pIC50.
// print number alone

In the examples that follow, each entry is paired with its recorded pIC50.
{"given.smiles": "CCNC(=O)c1cc(Nc2cc(C)[nH]n2)nc(N2CCN(Cc3ccc(S(=O)(=O)F)cc3)CC2)n1", "measurement.name": "pIC50", "quantitative.result": 4.62}
{"given.smiles": "C#CCNC(=O)c1cc(Nc2cc(C3CC3)[nH]n2)nc(N2CCN(Cc3ccc(S(=O)(=O)F)cc3)CC2)n1", "measurement.name": "pIC50", "quantitative.result": 5.21}

Okay, next one:
Data request: Query: pIC50; subject: CCNC(=O)c1cc(Nc2cc(C3CC3)[nH]n2)nc(N2CCN(Cc3ccc(S(=O)(=O)F)cc3)CC2)n1
Data returned: 5.2
